assayedSystem: Human TRPC6 (Homo sapiens)
Construct: expressed in transfected cells
Sequence (Q9Y210 whole entry): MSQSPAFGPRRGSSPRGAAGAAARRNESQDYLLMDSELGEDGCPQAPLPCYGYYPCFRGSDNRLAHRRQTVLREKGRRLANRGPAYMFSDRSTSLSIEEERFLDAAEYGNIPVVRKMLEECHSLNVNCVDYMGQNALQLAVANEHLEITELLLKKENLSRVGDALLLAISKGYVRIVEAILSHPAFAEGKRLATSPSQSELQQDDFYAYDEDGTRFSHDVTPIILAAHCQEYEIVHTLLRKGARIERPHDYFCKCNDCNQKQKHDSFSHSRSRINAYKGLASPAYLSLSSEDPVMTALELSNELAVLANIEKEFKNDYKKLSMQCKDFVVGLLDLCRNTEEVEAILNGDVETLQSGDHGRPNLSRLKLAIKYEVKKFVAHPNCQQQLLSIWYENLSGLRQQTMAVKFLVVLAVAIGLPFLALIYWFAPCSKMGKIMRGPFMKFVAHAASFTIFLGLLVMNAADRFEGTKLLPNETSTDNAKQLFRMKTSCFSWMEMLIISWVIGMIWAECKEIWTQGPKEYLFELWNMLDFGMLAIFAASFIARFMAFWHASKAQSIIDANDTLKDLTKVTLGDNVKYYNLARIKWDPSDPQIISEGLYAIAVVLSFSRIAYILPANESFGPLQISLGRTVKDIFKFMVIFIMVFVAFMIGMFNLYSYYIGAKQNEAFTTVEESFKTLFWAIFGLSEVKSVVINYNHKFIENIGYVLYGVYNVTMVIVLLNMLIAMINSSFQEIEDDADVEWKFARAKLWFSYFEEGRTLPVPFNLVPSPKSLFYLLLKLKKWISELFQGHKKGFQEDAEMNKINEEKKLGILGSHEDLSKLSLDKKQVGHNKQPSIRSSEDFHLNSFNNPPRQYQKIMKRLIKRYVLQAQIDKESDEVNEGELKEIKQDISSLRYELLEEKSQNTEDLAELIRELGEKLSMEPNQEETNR
protocolNotes: Evaluation of TRPC6 channel inhibitory activity (1), FLIPR Calcium 5 Assay Kit, OAG stimulation (Compound Nos. 1-1293)
Assay type: cell-based
measurementConditions: Human TRPC6 stably-expressing cells, OAG 30 μM, FLIPR Calcium 5 Assay Kit; read-out: Inhibitory activity (pIC50 class) (converted)
Measured IC50 values are reported for all entries that follow.

molecule	IC50
CCN(C)c1cc(Oc2cc(C#N)ccc2-c2ncc(CCN)cn2)n(C)n1	< 10 nM
Cn1nc(C2CC2)cc1Oc1cc(C#N)ccc1-c1cccc2c(N)noc12	> 1000 nM
Cn1nc(N)cc1Oc1cc(C#N)ccc1-c1ccc(CCN)cn1	10 to 1000 nM
N#Cc1ccc(-c2ccc(C(N)C(=O)O)cn2)c(Oc2cnnc(-c3ccccc3)c2)c1 (stereo not drawn)	10 to 1000 nM

In: Would you kindly share the measured IC50 for `CN(C)c1cc(Oc2cc(F)ccc2-c2ncc(CN)cn2)n(C)n1` ?
Out: 10 to 1000 nM
